meta.source: patent US20230100838A1

- system-tested: GDP-loaded K-Ras (1-169) C51S, C80L, C118S (Homo sapiens, UniProt P01116, C118S/C51S/C80L)
- Construct: GDP-loaded K-Ras (1-169) C51S, C80L, C118S
- run-description: K-Ras WT (GDP) cross-linking assay (conjugate formation, TOF mass spectrometry)
- Assay type: binding
- Set-up: key: 0: No observed x-linking; +: 0 < x ≤ 20; ++: 20 < x ≤ 40; +++: 40 < x ≤ 100
- run-parameters: Table 5; percent covalently modified K-Ras by MS; room temperature; typical compound conc. 2, 10, 25 μM, endpoints 1 and 24 h
assay-endpoint: WT x-linking (%)

Before answering, review these 6 worked examples.
molecule: Cc1ccnc(C(C)C)c1-n1c(=O)nc(N2[C@H](C)CN(C(=O)[C@H]3CN3)C[C@@H]2C)c2cc(F)c(-c3c(O)cccc3F)nc21
WT x-linking (%): 0

molecule: COC(=O)[C@H]1CN1C(=O)N1CCN(c2nc(OC[C@@H]3CCCN3C)nc3c2CCN(c2cccc4cccc(C)c24)C3)C[C@@H]1CC#N
WT x-linking (%): + (0 < x ≤ 20)

molecule: CSCCCN=C=NC1CCN(c2nc(OC[C@@H]3CCCN3C)nc3c2CCN(c2cccc4cccc(C)c24)C3)CC1
WT x-linking (%): + (0 < x ≤ 20)

molecule: Cc1ccnc(C(C)C)c1-n1c(=O)nc(N2[C@H](C)CN(C(=O)[C@H]3CN3)C[C@H]2C)c2cc(F)c(-c3c(O)cccc3F)nc21
WT x-linking (%): 0

molecule: CO[C@H]1CCCC[C@@H]1N=C=NC1CCN(c2nc(OC[C@@H]3CCCN3C)nc3c2CCN(c2cccc4cccc(C)c24)C3)CC1
WT x-linking (%): + (0 < x ≤ 20)

molecule: Cc1ccc2[nH]ncc2c1N1CCc2c(nc(OC[C@@H]3CCCN3C)nc2N2CCN(C(=O)[C@@H]3CN3)[C@@H](CC#N)C2)C1
WT x-linking (%): 0

Count: 7. Required value per item: WT x-linking (%).
1. Cc1cccc2cccc(N3CCc4c(nc(OC[C@@H]5CCCN5C)nc4N4CCC(N=C=NCCN(C)c5ccccc5)CC4)C3)c12
2. Cc1ccnc(C(C)C)c1-n1c(=O)nc(N2CCN(C(=O)[C@@H]3CN3)C[C@@H]2C)c2cc(F)c(-c3c(O)cccc3F)nc21
3. COCC1(N=C=NC2CCN(c3nc(OC[C@@H]4CCCN4C)nc4c3CCN(c3cccc5cccc(C)c35)C4)CC2)CC1
4. Cc1cccc2cccc(N3CCc4c(nc(OC[C@@H]5CCCN5C)nc4N4CCC(N=C=NCCn5ccnc5)CC4)C3)c12
5. Cc1cccc2cccc(N3CCc4c(nc(OC[C@@H]5CCCN5C)nc4N4CCN(C(=O)[C@@H]5CN5S(C)(=O)=O)[C@@H](CC#N)C4)C3)c12 (stereo partly shown)
6. CC(=O)N1C[C@@H]1C(=O)N1CCN(c2nc(OC[C@@H]3CCCN3C)nc3c2CCN(c2cccc4cccc(C)c24)C3)C[C@@H]1CC#N
7. Cc1cccc2cccc(N3CCc4c(nc(OC[C@@H]5CCCN5C)nc4N4CCC(N=C=NCCCN(C)c5ccccc5)CC4)C3)c12

["+ (0 < x ≤ 20)", "+ (0 < x ≤ 20)", "+ (0 < x ≤ 20)", "++ (20 < x ≤ 100)", "+ (0 < x ≤ 20)", 0, "+ (0 < x ≤ 20)"]

Count: 6. Required value per item: WT x-linking (%).
1. CC(=O)N1C[C@H]1CN1CCN(c2nc(OC[C@@H]3CCCN3C)nc3c2CCN(c2cccc4cccc(C)c24)C3)C[C@@H]1CC#N
2. COCCN=C=N[C@H]1CC[C@@H](N(C)c2nc(OC[C@@H]3CCCN3C)nc3c2CCN(c2cccc4cccc(C)c24)C3)CC1
3. COc1ccc(CN=C=NC2CCN(c3nc(OC[C@@H]4CCCN4C)nc4c3CCN(c3cccc5cccc(C)c35)C4)CC2)c(OC)c1
4. Cc1cccc2cccc(N3CCc4c(nc(OC[C@@H]5CCCN5C)nc4N4CCN(C[C@@H]5CN5)[C@@H](CC#N)C4)C3)c12
5. CN1CCC[C@H]1COc1nc2c(c(N3CCN(C(=O)[C@@H]4CN4)[C@@H](CC#N)C3)n1)CCN(c1cccc3cccc(Cl)c13)C2
6. Cc1cccc2cccc(N3CCc4c(nc(OC[C@@H]5CCCN5C)nc4N4CCC(N=C=NC5CCN(c6ccccc6)CC5)CC4)C3)c12

["+ (0 < x ≤ 20)", "++ (20 < x ≤ 100)", "+ (0 < x ≤ 20)", "+ (0 < x ≤ 20)", "+ (0 < x ≤ 20)", "+ (0 < x ≤ 20)"]
